// provenance: patent EP2809669B1

# test.system: hERG channel (Homo sapiens, UniProt Q12809)
# Construct: expressed in transfected cells
# Sequence (Q12809 whole entry): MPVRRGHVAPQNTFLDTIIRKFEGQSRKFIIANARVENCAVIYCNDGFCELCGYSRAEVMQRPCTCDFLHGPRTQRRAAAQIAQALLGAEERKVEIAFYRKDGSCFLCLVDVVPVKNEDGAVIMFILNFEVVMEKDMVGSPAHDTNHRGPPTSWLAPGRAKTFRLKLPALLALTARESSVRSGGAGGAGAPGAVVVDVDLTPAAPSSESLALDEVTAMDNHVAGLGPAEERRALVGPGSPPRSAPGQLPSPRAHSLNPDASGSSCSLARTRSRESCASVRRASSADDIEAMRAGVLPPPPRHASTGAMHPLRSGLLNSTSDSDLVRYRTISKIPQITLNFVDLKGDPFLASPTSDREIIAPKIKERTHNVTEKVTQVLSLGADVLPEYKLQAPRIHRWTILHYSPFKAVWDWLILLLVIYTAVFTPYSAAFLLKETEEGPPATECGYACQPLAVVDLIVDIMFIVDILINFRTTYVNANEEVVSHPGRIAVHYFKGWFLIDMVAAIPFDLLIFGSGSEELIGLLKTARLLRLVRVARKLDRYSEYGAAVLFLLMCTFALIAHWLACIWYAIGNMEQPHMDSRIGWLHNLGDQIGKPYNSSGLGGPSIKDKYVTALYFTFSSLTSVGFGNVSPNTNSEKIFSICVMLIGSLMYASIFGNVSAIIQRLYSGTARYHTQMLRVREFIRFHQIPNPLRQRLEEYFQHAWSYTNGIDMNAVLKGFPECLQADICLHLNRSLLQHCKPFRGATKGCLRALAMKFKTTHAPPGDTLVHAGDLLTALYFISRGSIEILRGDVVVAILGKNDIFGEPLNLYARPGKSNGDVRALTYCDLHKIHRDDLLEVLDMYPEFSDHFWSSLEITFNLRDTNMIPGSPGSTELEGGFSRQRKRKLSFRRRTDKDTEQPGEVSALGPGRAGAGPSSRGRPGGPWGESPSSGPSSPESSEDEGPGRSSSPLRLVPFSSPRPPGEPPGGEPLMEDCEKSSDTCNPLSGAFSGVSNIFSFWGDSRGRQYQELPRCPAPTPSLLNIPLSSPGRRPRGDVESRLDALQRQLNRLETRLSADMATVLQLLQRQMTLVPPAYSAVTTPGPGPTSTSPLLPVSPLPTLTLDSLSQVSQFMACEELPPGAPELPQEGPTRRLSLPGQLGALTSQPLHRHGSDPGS
# measurement.description: Determination of the effect on the hERG channel in CHO cells (whole-cell patch clamp)
# Format: cell-based
# details: CHO cells stably expressing hERG, room temperature, read-out: IC50 value [µM] for hERG inhibition
reported.property: IC50

Recorded IC50, per entry:
CC[C@@H](NC(=O)c1cc(C(=O)N2CCC[C@@H]2C(=O)OC(C)C)n2c1COCC2)c1ccccc1 [16n] = > 10 µM
CCOC(=O)[C@H](C)N(C)C(=O)c1cc(C(=O)N[C@H](CC)c2ccccc2)c2n1CCOC2 [16l] = > 10 µM
CC[C@@H](NC(=O)c1cc(C(=O)N2CCC[C@@H]2C)n2c1COCC2)c1ccc(Cl)c(Cl)c1 [16ci] = ~10 µM
CC[C@@H](NC(=O)c1cc(C(=O)N2CCC[C@@H]2C)n2c1COCC2)c1cnc(OC)c(Cl)c1 [16b] = > 10 µM
CC[C@@H](NC(=O)c1cc(C(=O)N[C@H](C)c2ccc(F)cc2)n2c1COCC2)c1ccc(C(F)(F)F)cc1 [16eb] = > 1 µM
CC[C@@H](NC(=O)c1cc(C(=O)N2CCC[C@@H]2C)n2c1COCC2)c1ccc(C(F)(F)F)c(Cl)c1 [16c] = > 10 µM
CC[C@@H](NC(=O)c1cc(C(=O)N[C@H](C)c2ccc(F)cc2)n2c1COCC2)c1ccc(C(F)(F)F)nc1 [16g] = > 10 µM

Continue with the compound presented below.
[in] Hello, please tell me recorded IC50 for this one: CCOC(=O)CNC(=O)c1cc(C(=O)N[C@H](CC)c2ccccc2)c2n1CCOC2 [16k]
[out] > 10 µM

----------
# Tested on: upper airway
# measurement.description: Effect on upper airway collapsibility in the anesthetized pig (negative pressure challenge)
# Type: in vivo
# details: 100 µg/kg intravenous bolus injection, negative pressure -150 mbar
reported.property: Time of inhibition of collapsibility (at -150 mbar)

CC[C@@H](NC(=O)c1cc(C(=O)N2CCC[C@@H]2C(=O)OC(C)C)n2c1COCC2)c1ccccc1 [16n] = for 120 min
CC[C@@H](NC(=O)c1cc(C(=O)N[C@H](CC)c2ccc(OC)nc2)n2c1COCC2)c1ccccc1 [16j] = for 120 min
